Tested on: SK-MEL-28 melanoma
assayRemarks: NCI-60 one-dose screen, 48 h (100 = growth as untreated, 0 = no growth, -100 = all killed)
conditionInfo: 10 µM unless noted
Compounds without any hit were thinned out: in the full panel of roughly 83,000, 20% have a hit.
Listing: growth of selected molecules
outcomeMeasure: growth (%)

molecule	outcomeMeasure	reportedValue
Cc1ccc(NC2CC(=O)N(c3c(C)cc(C)cc3C)C2=O)c(C)c1 (stereo unspecified)	growth	109
COc1ccc(C2CC(=O)c3c(nc4ccc(Cl)cc4c3N)C2)cc1 (stereo unspecified)	growth	98.4
c1ccc2c(-c3nc(-c4c[nH]c5ncccc45)cs3)c[nH]c2c1	growth	112
Cn1c(=O)c2c(ncn2CC(=O)Nc2ccc(S(N)(=O)=O)cc2)n(C)c1=O	growth	115
Fc1ccc2[nH]cc(-c3nc(-c4c[nH]c5ncccc45)cs3)c2c1	growth	89
CCSc1ncnc2c1ncn2C1OC(CO)C(O)C1O (stereo unspecified)	growth	83.1

---

Overview of reported growth across a group of compounds:
Tested on: MDA-MB-435 melanoma
assayRemarks: NCI-60 one-dose screen, 48 h (100 = growth as untreated, 0 = no growth, -100 = all killed)
conditionInfo: 10 µM unless noted
Compounds without any hit were thinned out: in the full panel of roughly 83,000, 20% have a hit.

compound	growth / %
COc1ccc2c(c1)c(-c1nc(-c3cn(C)c4ncccc34)cs1)cn2CCN	95.4
CN1CCN(CC#CCn2c3c(c4ccccc42)C[C@]2(C)[C@H]4CC[C@@H]5[C@H]6[C@H]7OC(=O)[C@@]6(CCC7(C)C)CC[C@@]5(C)[C@]4(C)CC[C@H]2C3(C)C)CC1	97.8
O=C(N/N=C/c1ccccc1SSc1ccccc1/C=N/NC(=O)c1ccccc1)c1ccccc1	46.1
O=C(Nc1ccc(/C=C2\SC(=O)N(Cc3ccc(OC(F)(F)F)cc3)C2=O)cc1)c1ccc(Cl)c([N+](=O)[O-])c1	99.6
C[C@@H]1CCCCCCCCC[C@H](O)C(=O)C[C@@H](SC[C@@H](O)C(=O)O)C(=O)O1	103
Cc1nn2c(-c3nc4cc(Cl)c(Cl)cc4[nH]3)c(-c3ccc(F)cc3)nc2s1	26.6
COc1cc(-c2cc3cc(O)ccc3oc2=O)cc(OC)c1OC	90.7
CCCC1CCCCN1C(=O)OCC(C)C (centres undefined)	100
COc1ccc2c(c1)C(Br)=C(CCO)C2c1ccccc1 (centres undefined)	91.8

---

System: COLO 205 colon
assayRemarks: NCI-60 one-dose screen, 48 h (100 = growth as untreated, 0 = no growth, -100 = all killed)
conditionInfo: 10 µM unless noted
Compounds without any hit were thinned out: in the full panel of roughly 83,000, 20% have a hit.
# growth listing for each entry below

molecule	targetOrTestSystem	growth [%]
CN(C)CCCCC(C(=O)CBr)(c1ccccc1)c1ccccc1	COLO 205 colon	-76
Nc1ccc(Cl)cn1	COLO 205 colon	108
Nc1c2c(nc3ccc(Cl)cc13)CC(c1ccccc1)CC2=O (stereo unspecified)	COLO 205 colon	39.3
C/C(=N\Nc1cc(C)c2ccccc2n1)c1ccccn1	COLO 205 colon	3.41
Cc1nn2c(-c3nc4cc(Cl)c(Cl)cc4[nH]3)c(-c3ccc(F)cc3)nc2s1	COLO 205 colon	17.7
Cn1c(=O)c2c(nc(Br)n2CC(=O)Nc2ccc(F)cc2)n(C)c1=O	COLO 205 colon	104

---

# growth per record follows
System: HOP-62 NSCLC
assayRemarks: NCI-60 one-dose screen, 48 h (100 = growth as untreated, 0 = no growth, -100 = all killed)
conditionInfo: 10 µM unless noted
This is part of a sample that, as a whole, favours compounds with a hit. Of some 83,000 tested, about 20% had one in any assay.

compound	growth / %
O=C(/C=C/c1cccc2ccccc12)Nc1ncc(Cc2ccccc2)s1	28.7
COc1ccc(/C=C2\N=C(c3ccccc3)N(c3cc(OC)c(OC)cc3C(=O)N3N=C(C)CC3=O)C2=O)cc1	97
Cn1cc(-c2nc(-c3cn(C)c4ncccc34)cs2)c2ccccc21	36.1
Cn1c(=O)c2c(nc(N3CCCC3)n2C)n(C)c1=O	104
C/C(=N\Nc1ccc2ccccc2n1)c1ccccn1	5.02
O=C(c1ccccc1)C(CN1CCOCC1)c1ccccc1 (stereo unspecified)	81
CSc1ccc(N(C)c2nc(C)nc3c2CCC3)cc1	2.72
CCN1CCN(C(=O)[C@]23CCC(C)(C)C[C@H]2C2=CC[C@@H]4[C@@]5(C)CC/C(=N/O)C(C)(C)[C@@H]5CC[C@@]4(C)[C@]2(C)CC3)CC1	76.9
Nc1ccccc1NC(=O)c1ccc(CN2CCC/C(=C\c3ccccn3)C2=O)cc1	41.8
Cc1cc(Cl)c2c(N(C)C)cccc2n1	102
O=[N+]([O-])c1ccc(/C=N\Nc2ccccc2)cc1	95.2

---

Tested on: M14 melanoma
assayRemarks: NCI-60 one-dose screen, 48 h (100 = growth as untreated, 0 = no growth, -100 = all killed)
conditionInfo: 10 µM unless noted
Compounds without any hit were thinned out: in the full panel of roughly 83,000, 20% have a hit.
Entries and their growth

compound	growth (%)
COc1cc2nc(Cl)nc(Nc3cccc(C(=O)/C=C/c4ccc(Br)cc4)c3)c2cc1OC	89.8
COC(=O)[C@]12CC[C@@H](C)[C@H](C)[C@@H]1C1=CC(=O)[C@@H]3[C@@]4(C)C[C@@H](OC(C)=O)[C@H](OC(C)=O)[C@@](C)(COC(C)=O)[C@@H]4C(=O)C[C@@]3(C)[C@]1(C)CC2	29.5
Cc1ccncc1C(=O)O	100
CCN(CC)c1ccc(/C=C/c2cc(C)c3ccccc3n2)cc1	38.2
CC1(C)[C@@H](O)CC[C@]2(C)[C@H]3CC[C@@H]4[C@H]5[C@H](C(=O)/C=C/c6ccc(C(F)(F)F)cc6)CC[C@]5(CO)CC[C@@]4(C)[C@]3(C)CC[C@@H]12	7.81
C[Si](C)(C)Cc1ccccc1	104
CCCCCCCC(=O)SCC/C=C/[C@@H]1CC(=O)NCc2cccc(n2)CN(Cc2ccc(Cl)cc2)CC(=O)N[C@@H](C(C)C)C(=O)O1	8.96
N#C/C(=C\c1ccc(-c2ccccc2)o1)c1nc(-c2ccco2)cs1	93.8
Cn1c2c(c3ccc(Cl)cc31)-n1cccc1C2=O	109

---

System: SK-MEL-2 melanoma
assayRemarks: NCI-60 one-dose screen, 48 h
conditionInfo: 10 µM unless noted
About 83,000 compounds went through this panel and 20% of them were active in at least one assay; those are over-represented in the sample as a whole. Active and inactive are the calls of the source. The calls were made as follows: active = growth percent below 10; inactive = the rest.
Classes used: active, inactive

compound	categoryLabel
Cc1ccc(S(=O)(=O)Nc2ccc(-c3cc(-c4cccc(F)c4)c(C#N)c(=O)[nH]3)cc2)cc1	inactive
COC(=O)[C@]12CC[C@@H](C)[C@H](C)[C@@H]1C1=CC[C@@H]3[C@@](C)(CC#N)C4=C(C[C@@]3(C)[C@]1(C)CC2)OC[C@]4(C)C=O	active
N#C/C(=C\c1ccc(-c2ccccc2)o1)c1nc(-c2ccco2)cs1	inactive
Cc1cccc(C)c1NC(=O)CSC(=S)N1CCCCC1	inactive
NC(=O)[C@@H]1CC2CCC1C2 (stereo partly drawn)	inactive
c1ccc2[nH]c(-c3ccc(Nc4nc(N5CCCCC5)nc(N5CCOCC5)n4)cc3)nc2c1	active
COC(=O)CCCCCn1c2ccccc2c2c3c(c4c5ccccc5[nH]c4c21)C(=O)N(O)C3=O	inactive
C[C@H]1[C@@H]2[C@H]3CC[C@@H]4[C@@]5(C)Cc6c([nH]c7ccccc67)C(C)(C)[C@@H]5CC[C@@]4(C)[C@]3(C)CC[C@]23CO[C@]1(C)[C@@H](C(=O)/C=C/c1ccccn1)C3	inactive
COc1cccc(-c2nn(-c3ccccc3)cc2-c2ccnc(NCCNS(=O)(=O)c3ccc(C(F)(F)F)cc3)c2)c1	active
C=C1C(=O)O[C@H]2[C@H]1CC/C(COC(=O)N[C@H](Cc1c[nH]c3ccccc13)C(=O)OC)=C\CC[C@@]1(C)O[C@@H]21	inactive
CCCCC[C@H]1CC=C2C(=O)C=C[C@@H]2CC=CCCCC(=O)O[C@@H](CCCCC)CC=C2C(=O)C=C[C@@H]2CC=CCCCC(=O)O[C@@H](CCCCC)CC=C2C(=O)C=C[C@@H]2CC=CCCCC(=O)O1	active
C=C(C)[C@@H]1CC[C@]2(C)[C@H](CC=C3[C@@H]4CC(C)(C)CC[C@]4(C(=O)OC)CC[C@]32C)[C@@]1(C)CC/C(N)=N/O	inactive
OCC1OC(n2cnc3c(Cl)ncnc32)CC1O (stereo not drawn)	inactive
COc1cc2[nH]c(C(=O)c3cc(OC)c(OC)c(OC)c3)c(N)c2cc1C#CC1CC1	inactive
Fc1ccc(NCc2nnc(-c3ccc(Cl)cc3)o2)cc1	inactive
C#Cc1cc2c(N)c(C(=O)c3cc(OC)c(OC)c(OC)c3)[nH]c2cc1OC	inactive
N#C/C(=C\c1ccc(-c2ccc(Br)cc2)o1)c1nc(-c2cccs2)cs1	inactive
COc1ccc2c(c1)c(-c1nc(-c3cn(C)c4ncccc34)cs1)cn2CCCN1CCCCC1	inactive
